// data source = ChEMBL document CHEMBL4765293

Test system: Calf thymus DNA
Experiment: Binding affinity to calf thymus duplex DNA by UV- vis spectrophotometric analysis
Format: nucleic-acid assay
Settings: Bos taurus
Value Type: Ka

Please review the entries below; each comes with its answer.
| Entry Smiles | Ka |
| --- | --- |
| Cn1cc(NC(=O)c2cccn2C)cc1C(=O)NCCC[N+](C)(C)CC(=O)Nc1ccc2c(c1)C(=O)c1ccc(NC(=O)C[N+](C)(C)CCCNC(=O)c3cc(NC(=O)c4cccn4C)cn3C)cc1C2=O | 0.016 10^6/M |
| C[N+](C)(C)CC(=O)Nc1ccc2c(c1)C(=O)c1ccc(NC(=O)C[N+](C)(C)C)cc1C2=O | 0.06 10^6/M |
| Cn1cc(NC(=O)c2cc(NC(=O)c3cccn3C)cn2C)cc1C(=O)NCCC[N+](C)(C)CC(=O)Nc1ccc2c(c1)C(=O)c1ccc(NC(=O)C[N+](C)(C)CCCNC(=O)c3cc(NC(=O)c4cc(NC(=O)c5cccn5C)cn4C)cn3C)cc1C2=O | 0.01 10^6/M |

Param item = `Cn1cccc1C(=O)NCCC[N+](C)(C)CC(=O)Nc1ccc2c(c1)C(=O)c1ccc(NC(=O)C[N+](C)(C)CCCNC(=O)c3cccn3C)cc1C2=O.[Cl-].[Cl-]` ; retrieve measured Ka.
0.02 10^6/M

###

// pIC50 lookup, one value per entry
Test system: HEK-293T
Assay: Cytotoxicity against human HEK293T cells assessed as cell viability incubated for 72 hr by MTT assay
Assay type: functional, cell-based
// returns pIC50 (minus log10 of molar concentration), number only

Please review the entries below; each comes with its answer.
| Entry Smiles | pIC50 |
| --- | --- |
| Cn1cc(NC(=O)c2cccn2C)cc1C(=O)NCCC[N+](C)(C)CC(=O)Nc1ccc2c(c1)C(=O)c1ccc(NC(=O)C[N+](C)(C)CCCNC(=O)c3cc(NC(=O)c4cccn4C)cn3C)cc1C2=O | 4.72 |
| Cn1cccc1C(=O)NCCC[N+](C)(C)CC(=O)Nc1ccc2c(c1)C(=O)c1ccc(NC(=O)C[N+](C)(C)CCCNC(=O)c3cccn3C)cc1C2=O.[Cl-].[Cl-] | 4.37 |

Param item = `Cn1cc(NC(=O)c2cc(NC(=O)c3cccn3C)cn2C)cc1C(=O)NCCC[N+](C)(C)CC(=O)Nc1ccc2c(c1)C(=O)c1ccc(NC(=O)C[N+](C)(C)CCCNC(=O)c3cc(NC(=O)c4cc(NC(=O)c5cccn5C)cn4C)cn3C)cc1C2=O` ; retrieve measured pIC50.
4.82

###

Assay: Cytotoxicity against human HDFa cells assessed as cell viability incubated for 72 hr by MTT assay
Assay type: cell-based
pIC50: −log10 of the molar value.
Value Type: pIC50

| Entry Smiles | pIC50 |
| --- | --- |
| Cn1cccc1C(=O)NCCC[N+](C)(C)CC(=O)Nc1ccc2c(c1)C(=O)c1ccc(NC(=O)C[N+](C)(C)CCCNC(=O)c3cccn3C)cc1C2=O.[Cl-].[Cl-] | < 4.00 |

Param item = `Cn1cc(NC(=O)c2cc(NC(=O)c3cccn3C)cn2C)cc1C(=O)NCCC[N+](C)(C)CC(=O)Nc1ccc2c(c1)C(=O)c1ccc(NC(=O)C[N+](C)(C)CCCNC(=O)c3cc(NC(=O)c4cc(NC(=O)c5cccn5C)cn4C)cn3C)cc1C2=O` ; retrieve measured pIC50.
< 4.00

Param item = `Cn1cc(NC(=O)c2cccn2C)cc1C(=O)NCCC[N+](C)(C)CC(=O)Nc1ccc2c(c1)C(=O)c1ccc(NC(=O)C[N+](C)(C)CCCNC(=O)c3cc(NC(=O)c4cccn4C)cn3C)cc1C2=O` ; retrieve measured pIC50.
< 4.00

###

Experiment: Selectivity index, binding affinity to c-MYC G4 quadruplex DNA (unknown origin) to binding affinity c-MYC ds DNA (unknown origin)
Value Type: Selectivity Index

P: Cn1cc(NC(=O)c2cccn2C)cc1C(=O)NCCC[N+](C)(C)CC(=O)Nc1ccc2c(c1)C(=O)c1ccc(NC(=O)C[N+](C)(C)CCCNC(=O)c3cc(NC(=O)c4cccn4C)cn3C)cc1C2=O
Q: C[N+](C)(C)CC(=O)Nc1ccc2c(c1)C(=O)c1ccc(NC(=O)C[N+](C)(C)C)cc1C2=O
Could you tell me which of P and Q has the lower Selectivity Index reading? Give the label under which the chosen entry appears.
Q
(Q: 3.2, P: 175)

###

// Ka lookup, one value per entry
Experiment: Binding affinity to c-MYC ds DNA (unknown orgin) by UV- vis spectrophotometric analysis

| Entry Smiles | Experimental Value |
| --- | --- |
| Cn1cc(NC(=O)c2cc(NC(=O)c3cccn3C)cn2C)cc1C(=O)NCCC[N+](C)(C)CC(=O)Nc1ccc2c(c1)C(=O)c1ccc(NC(=O)C[N+](C)(C)CCCNC(=O)c3cc(NC(=O)c4cc(NC(=O)c5cccn5C)cn4C)cn3C)cc1C2=O | 0.012 10^6/M |
| Cn1cc(NC(=O)c2cccn2C)cc1C(=O)NCCC[N+](C)(C)CC(=O)Nc1ccc2c(c1)C(=O)c1ccc(NC(=O)C[N+](C)(C)CCCNC(=O)c3cc(NC(=O)c4cccn4C)cn3C)cc1C2=O | 0.018 10^6/M |
| C[N+](C)(C)CC(=O)Nc1ccc2c(c1)C(=O)c1ccc(NC(=O)C[N+](C)(C)C)cc1C2=O | 0.05 10^6/M |

Consider now this further compound.
Param item = `Cn1cccc1C(=O)NCCC[N+](C)(C)CC(=O)Nc1ccc2c(c1)C(=O)c1ccc(NC(=O)C[N+](C)(C)CCCNC(=O)c3cccn3C)cc1C2=O.[Cl-].[Cl-]` ; retrieve measured Ka.
0.025 10^6/M

###

Tested on: Quadruplex DNA
Assay: Binding affinity to human telomeric H21 G4 quadruplex DNA in presence of NaCl assessed as increase in fluorescence intensity at 0.2 uM by fluorescence spectroscopic analysis
Assay type: nucleic-acid assay
Active and inactive are the calls of the source. No cut-off for these calls is given here.

| Entry Smiles | Activity |
| --- | --- |
| Cn1cccc1C(=O)NCCC[N+](C)(C)CC(=O)Nc1ccc2c(c1)C(=O)c1ccc(NC(=O)C[N+](C)(C)CCCNC(=O)c3cccn3C)cc1C2=O.[Cl-].[Cl-] | Active |
| C[N+](C)(C)CC(=O)Nc1ccc2c(c1)C(=O)c1ccc(NC(=O)C[N+](C)(C)C)cc1C2=O | Active |
| Cn1cc(NC(=O)c2cccn2C)cc1C(=O)NCCC[N+](C)(C)CC(=O)Nc1ccc2c(c1)C(=O)c1ccc(NC(=O)C[N+](C)(C)CCCNC(=O)c3cc(NC(=O)c4cccn4C)cn3C)cc1C2=O | Active |
| Cn1cc(NC(=O)c2cc(NC(=O)c3cccn3C)cn2C)cc1C(=O)NCCC[N+](C)(C)CC(=O)Nc1ccc2c(c1)C(=O)c1ccc(NC(=O)C[N+](C)(C)CCCNC(=O)c3cc(NC(=O)c4cc(NC(=O)c5cccn5C)cn4C)cn3C)cc1C2=O | Active |

###

// Ka lookup, one value per entry
System: Quadruplex DNA
Assay: Binding affinity to human telomeric H21 G4 quadruplex DNA in presence of NaCl by UV- vis spectrophotometric analysis
Format: nucleic-acid assay

| Entry Smiles | Ka |
| --- | --- |
| C[N+](C)(C)CC(=O)Nc1ccc2c(c1)C(=O)c1ccc(NC(=O)C[N+](C)(C)C)cc1C2=O | 0.05 10^6/M |
| Cn1cc(NC(=O)c2cc(NC(=O)c3cccn3C)cn2C)cc1C(=O)NCCC[N+](C)(C)CC(=O)Nc1ccc2c(c1)C(=O)c1ccc(NC(=O)C[N+](C)(C)CCCNC(=O)c3cc(NC(=O)c4cc(NC(=O)c5cccn5C)cn4C)cn3C)cc1C2=O | 0.6 10^6/M |
| Cn1cccc1C(=O)NCCC[N+](C)(C)CC(=O)Nc1ccc2c(c1)C(=O)c1ccc(NC(=O)C[N+](C)(C)CCCNC(=O)c3cccn3C)cc1C2=O.[Cl-].[Cl-] | 0.6 10^6/M |

Param item = `Cn1cc(NC(=O)c2cccn2C)cc1C(=O)NCCC[N+](C)(C)CC(=O)Nc1ccc2c(c1)C(=O)c1ccc(NC(=O)C[N+](C)(C)CCCNC(=O)c3cc(NC(=O)c4cccn4C)cn3C)cc1C2=O` ; retrieve measured Ka.
0.6 10^6/M

###

Tested on: Quadruplex DNA
Experiment: Binding affinity to Human telomeric H21 G4 quadruplex DNA (unknown origin) in presence of KCl by UV- vis spectrophotometric analysis
Format: nucleic-acid assay
Value Type: Ka

Please review the entries below; each comes with its answer.
| Entry Smiles | Experimental Value |
| --- | --- |
| Cn1cc(NC(=O)c2cc(NC(=O)c3cccn3C)cn2C)cc1C(=O)NCCC[N+](C)(C)CC(=O)Nc1ccc2c(c1)C(=O)c1ccc(NC(=O)C[N+](C)(C)CCCNC(=O)c3cc(NC(=O)c4cc(NC(=O)c5cccn5C)cn4C)cn3C)cc1C2=O | 1.1 10^6/M |
| Cn1cccc1C(=O)NCCC[N+](C)(C)CC(=O)Nc1ccc2c(c1)C(=O)c1ccc(NC(=O)C[N+](C)(C)CCCNC(=O)c3cccn3C)cc1C2=O.[Cl-].[Cl-] | 0.5 10^6/M |
| C[N+](C)(C)CC(=O)Nc1ccc2c(c1)C(=O)c1ccc(NC(=O)C[N+](C)(C)C)cc1C2=O | 0.07 10^6/M |

Consider now this further molecule.
Param item = `Cn1cc(NC(=O)c2cccn2C)cc1C(=O)NCCC[N+](C)(C)CC(=O)Nc1ccc2c(c1)C(=O)c1ccc(NC(=O)C[N+](C)(C)CCCNC(=O)c3cc(NC(=O)c4cccn4C)cn3C)cc1C2=O` ; retrieve measured Ka.
0.3 10^6/M
